Target: T1, human PSMA expressed with an N-terminal hexahistidine tag (6h.hPSMA, R&D) (human, UniProt Q04609 44-750)
T1 construct: Bought soluble protein; also called soluble human PSMA; human PSMA protein
T1 sequence (Q04609 other isoform, or with tags, fused parts or gaps limits assumed): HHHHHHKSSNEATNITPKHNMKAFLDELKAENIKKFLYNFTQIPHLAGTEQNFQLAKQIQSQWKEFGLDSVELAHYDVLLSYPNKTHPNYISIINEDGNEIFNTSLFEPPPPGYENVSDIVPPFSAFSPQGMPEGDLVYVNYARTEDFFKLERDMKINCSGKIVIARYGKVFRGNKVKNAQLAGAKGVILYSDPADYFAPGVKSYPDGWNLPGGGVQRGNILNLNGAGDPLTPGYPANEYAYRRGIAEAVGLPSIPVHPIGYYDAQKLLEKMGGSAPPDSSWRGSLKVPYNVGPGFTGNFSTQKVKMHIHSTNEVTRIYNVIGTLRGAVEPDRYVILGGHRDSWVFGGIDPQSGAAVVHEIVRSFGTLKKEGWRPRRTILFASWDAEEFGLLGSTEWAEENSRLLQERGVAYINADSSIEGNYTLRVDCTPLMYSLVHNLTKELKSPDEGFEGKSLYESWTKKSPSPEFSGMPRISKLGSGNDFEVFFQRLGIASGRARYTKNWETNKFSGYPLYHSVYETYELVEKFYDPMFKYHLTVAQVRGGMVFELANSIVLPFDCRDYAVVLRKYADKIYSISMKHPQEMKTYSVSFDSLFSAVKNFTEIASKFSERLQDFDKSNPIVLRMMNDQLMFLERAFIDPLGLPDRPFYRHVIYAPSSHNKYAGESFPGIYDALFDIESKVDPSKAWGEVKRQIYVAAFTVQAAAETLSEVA
Experiment: SPR Biacore T-200, 37 C, antibody-capture (anti-human Fc), 6h.hPSMA as analyte
Description: In this example, anti-PSMA antibodies were assessed for their ability to bind to human PSMA. […] Measurements were conducted on a Biacore™ T-200 instrument (GE Healthcare). […] Kinetic association (kₐ) and dissociation (kd) rate constants were determined by fitting the real-time sensorgrams to a 1:1 binding model using Scrubber 2.0c curve fitting software. […]
measure.name: koff (s⁻¹)
Give bare numbers, in s⁻¹.

Enquiry: Check the records and state koff for H1H3465P (antibody, human IgG1, V domains shown, human IgG1; also called PSMA-VH-3465 (its HCVR)) VH: QVQLVESGGGVVQPGRSLRLSCAASGFTFITYGMHWVRQAPGKGLEWVAIIYYDESNKYYADSVKGRFTISRDISKNTLYLQMNGLRAEDTAVYYCARAPRVAVEEDYSYYYGMDVWGQGTTVTVSS VL: DIQMTQSPSSLSASVGDRVTITCRASQGIRNDLGWYQQKPGRAPKRLIYGASNLQSGVPSRFSGSGSGTEFTLTISSLQPEDFATYYCLQHNSHPYTFGQGTKLEIK
Return: 6.06e-05
